system: 362531-283-R-J2-PDC complex spheroid viability; assay: Anticancer human tumor 362531-283-R-J2-PDC patient-derived colon adenocarcinoma cell line growth inhibition [RAS]; conditions: second compound 0.3 µM; first compound 0.316 µM; stronger effect = lower value
# label = 1.0 if viability, T/C < 80% else 0.0

{"columns": ["compound", "tgt", "classification"],
 "data": [
  ["CCC(CC)c1cc(NC2CCC(N)C2)n2nccc2n1 (stereo not given) + CCn1c(-c2cc(N3CCN(C)CC3)cnc2C(C)OC)c2c3cc(ccc31)-c1csc(n1)CC(NC(=O)C1CC1C)C(=O)N1CCCC(N1)C(=O)OCC(C)(C)C2", "362531-283-R-J2-PDC complex spheroid viability", 1.0],
  ["CC(=O)OC12COC1CC(O)C1(C)C(=O)C(O)C3=C(C)C(OC(=O)C(O)C(NC(=O)OC(C)(C)C)c4ccccc4)CC(O)(C(OC(=O)c4ccccc4)C21)C3(C)C (stereo not given) + CCn1c(-c2cc(N3CCN(C)CC3)cnc2C(C)OC)c2c3cc(ccc31)-c1csc(n1)CC(NC(=O)C1CC1C)C(=O)N1CCCC(N1)C(=O)OCC(C)(C)C2", "362531-283-R-J2-PDC complex spheroid viability", 1.0],
  ["C=CC(=O)N1CCN(c2nc(OCC3CCCN3C)nc3c(F)c(-c4nc(N)cc(C)c4C(F)(F)F)c(Cl)cc23)C(C)C1 (stereo not given) + CCn1c(-c2cc(N3CCN(C)CC3)cnc2C(C)OC)c2c3cc(ccc31)-c1csc(n1)CC(NC(=O)C1CC1C)C(=O)N1CCCC(N1)C(=O)OCC(C)(C)C2", "362531-283-R-J2-PDC complex spheroid viability", 1.0],
  ["Cc1nc(N2CCC3(CC2)COC(C)C3N)c(CO)nc1Sc1ccnc(N)c1Cl (stereo not given) + CCn1c(-c2cccnc2C(C)OC)c2c3cc(ccc31)N1CCOC(CC(NC(=O)C(C(C)C)N(C)C(=O)C3(F)CCN(C(=O)C#CC(C)(C)N(C)C)CC3)C(=O)N3CCCC(N3)C(=O)OCC(C)(C)C2)C1", "362531-283-R-J2-PDC complex spheroid viability", 0.0],
  ["CC(=O)OC12COC1CC(O)C1(C)C(=O)C(O)C3=C(C)C(OC(=O)C(O)C(NC(=O)OC(C)(C)C)c4ccccc4)CC(O)(C(OC(=O)c4ccccc4)C21)C3(C)C (stereo not given) + CCn1c(-c2cccnc2C(C)OC)c2c3cc(ccc31)N1CCOC(CC(NC(=O)C(C(C)C)N(C)C(=O)C3(F)CCN(C(=O)C#CC(C)(C)N(C)C)CC3)C(=O)N3CCCC(N3)C(=O)OCC(C)(C)C2)C1", "362531-283-R-J2-PDC complex spheroid viability", 1.0],
  ["CC(Nc1ccc2c(c1)OCCn1cc(N3C(=O)OCC3C(F)F)nc1-2)C(N)=O (stereo not given) + CCn1c(-c2cccnc2C(C)OC)c2c3cc(ccc31)N1CCOC(CC(NC(=O)C(C(C)C)N(C)C(=O)C3(F)CCN(C(=O)C#CC(C)(C)N(C)C)CC3)C(=O)N3CCCC(N3)C(=O)OCC(C)(C)C2)C1", "362531-283-R-J2-PDC complex spheroid viability", 0.0],
  ["C=CC(=O)Nc1cc(Nc2nccc(-c3cn(C)c4ccccc34)n2)c(OC)cc1N(C)CCN(C)C + CCn1c(-c2cc(N3CCN(C)CC3)cnc2C(C)OC)c2c3cc(ccc31)-c1csc(n1)CC(NC(=O)C1CC1C)C(=O)N1CCCC(N1)C(=O)OCC(C)(C)C2", "362531-283-R-J2-PDC complex spheroid viability", 1.0],
  ["CCC(CC)c1cc(NC2CCC(N)C2)n2nccc2n1 (stereo not given) + CCn1c(-c2cccnc2C(C)OC)c2c3cc(ccc31)N1CCOC(CC(NC(=O)C(C(C)C)N(C)C(=O)C3(F)CCN(C(=O)C#CC(C)(C)N(C)C)CC3)C(=O)N3CCCC(N3)C(=O)OCC(C)(C)C2)C1", "362531-283-R-J2-PDC complex spheroid viability", 0.0],
  ["C[C@@H](NC(=O)c1ncnc(N)c1Cl)c1ncc(C(=O)Nc2cc(C(F)(F)F)c(Cl)cn2)s1 + CCn1c(-c2cccnc2C(C)OC)c2c3cc(ccc31)N1CCOC(CC(NC(=O)C(C(C)C)N(C)C(=O)C3(F)CCN(C(=O)C#CC(C)(C)N(C)C)CC3)C(=O)N3CCCC(N3)C(=O)OCC(C)(C)C2)C1", "362531-283-R-J2-PDC complex spheroid viability", 0.0],
  ["O=C(c1ccc(F)c(F)c1Nc1ccc(I)cc1F)N1CC(O)([C@@H]2CCCCN2)C1 + CCn1c(-c2cccnc2C(C)OC)c2c3cc(ccc31)N1CCOC(CC(NC(=O)C(C(C)C)N(C)C(=O)C3(F)CCN(C(=O)C#CC(C)(C)N(C)C)CC3)C(=O)N3CCCC(N3)C(=O)OCC(C)(C)C2)C1", "362531-283-R-J2-PDC complex spheroid viability", 0.0],
  ["NC1c2ccccc2OC12CCN(c1cnc3c(N4CCCc5ncccc54)n[nH]c3n1)CC2 (stereo not given) + CCn1c(-c2cccnc2C(C)OC)c2c3cc(ccc31)N1CCOC(CC(NC(=O)C(C(C)C)N(C)C(=O)C3(F)CCN(C(=O)C#CC(C)(C)N(C)C)CC3)C(=O)N3CCCC(N3)C(=O)OCC(C)(C)C2)C1", "362531-283-R-J2-PDC complex spheroid viability", 1.0],
  ["C[C@@H](NC(=O)c1ncnc(N)c1Cl)c1ncc(C(=O)Nc2cc(C(F)(F)F)c(Cl)cn2)s1 + CCn1c(-c2cc(N3CCN(C)CC3)cnc2C(C)OC)c2c3cc(ccc31)-c1csc(n1)CC(NC(=O)C1CC1C)C(=O)N1CCCC(N1)C(=O)OCC(C)(C)C2", "362531-283-R-J2-PDC complex spheroid viability", 1.0],
  ["Cc1nc(N2CCC3(CC2)COC(C)C3N)c(CO)nc1Sc1ccnc(N)c1Cl (stereo not given) + CCn1c(-c2cc(N3CCN(C)CC3)cnc2C(C)OC)c2c3cc(ccc31)-c1csc(n1)CC(NC(=O)C1CC1C)C(=O)N1CCCC(N1)C(=O)OCC(C)(C)C2", "362531-283-R-J2-PDC complex spheroid viability", 1.0],
  ["CC1(O)CCCC1n1c(=O)c(C(F)F)cc2cnc(NC3CCN(S(C)(=O)=O)CC3)nc21 (stereo not given) + CCn1c(-c2cc(N3CCN(C)CC3)cnc2C(C)OC)c2c3cc(ccc31)-c1csc(n1)CC(NC(=O)C1CC1C)C(=O)N1CCCC(N1)C(=O)OCC(C)(C)C2", "362531-283-R-J2-PDC complex spheroid viability", 1.0],
  ["Nc1ccn(C2OC(CO)C(O)C2(F)F)c(=O)n1 (stereo not given) + CCn1c(-c2cc(N3CCN(C)CC3)cnc2C(C)OC)c2c3cc(ccc31)-c1csc(n1)CC(NC(=O)C1CC1C)C(=O)N1CCCC(N1)C(=O)OCC(C)(C)C2", "362531-283-R-J2-PDC complex spheroid viability", 1.0]
]}

---

Below, each of the compounds is paired with its reported viability, T/C value.
tested on: 362531-283-R-J2-PDC complex spheroid viability; experiment: Anticancer human tumor 362531-283-R-J2-PDC cell line growth inhibition [RAS]; conditions: second compound 0.03 µM; first compound 1 µM; stronger effect = lower value;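 also: spheroids exposed to the agents for 7 days before readout; luminescence viability as percent of DMSO vehicle control wells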
propertyLabel: viability, T/C (%)

{"columns": ["compound", "propertyLabel", "valueReported"],
 "data": [
  ["Nc1ccn(C2OC(CO)C(O)C2(F)F)c(=O)n1 (centres undefined) + CCn1c(-c2cc(N3CCN(C)CC3)cnc2C(C)OC)c2c3cc(ccc31)-c1csc(n1)CC(NC(=O)C1CC1C)C(=O)N1CCCC(N1)C(=O)OCC(C)(C)C2", "viability, T/C", 21.6],
  ["NC1c2ccccc2OC12CCN(c1cnc3c(N4CCCc5ncccc54)n[nH]c3n1)CC2 (centres undefined) + CCn1c(-c2cc(N3CCN(C)CC3)cnc2C(C)OC)c2c3cc(ccc31)-c1csc(n1)CC(NC(=O)C1CC1C)C(=O)N1CCCC(N1)C(=O)OCC(C)(C)C2", "viability, T/C", 7.15],
  ["C[C@@H](NC(=O)c1ncnc(N)c1Cl)c1ncc(C(=O)Nc2cc(C(F)(F)F)c(Cl)cn2)s1 + CCn1c(-c2cccnc2C(C)OC)c2c3cc(ccc31)N1CCOC(CC(NC(=O)C(C(C)C)N(C)C(=O)C3(F)CCN(C(=O)C#CC(C)(C)N(C)C)CC3)C(=O)N3CCCC(N3)C(=O)OCC(C)(C)C2)C1", "viability, T/C", 91.7],
  ["O=C(c1ccc(F)c(F)c1Nc1ccc(I)cc1F)N1CC(O)([C@@H]2CCCCN2)C1 + CCn1c(-c2cccnc2C(C)OC)c2c3cc(ccc31)N1CCOC(CC(NC(=O)C(C(C)C)N(C)C(=O)C3(F)CCN(C(=O)C#CC(C)(C)N(C)C)CC3)C(=O)N3CCCC(N3)C(=O)OCC(C)(C)C2)C1", "viability, T/C", 26.4]
]}
